System: T47D
assay-procedure: Caspase cascade activation assay (N-(Ac-DEVD)-N'-ethoxycarbonyl-R110 fluorogenic substrate) in T47D cells
Type: cell-based, Human
experimental-setup: ratio of net RFU of test compound to control, 24 h incubation, 0.16 to 10 μM final
measured-attribute: Caspase activity Ratio

[in] State its Caspase activity Ratio for this compound: COc1ccc(NC(=O)c2cnc(Cl)c(Cl)c2)c([N+](=O)[O-])c1 [Example 16]
[out] Inactive

[in] State its Caspase activity Ratio for this compound: CCOc1ccc(NC(=O)c2ccc(Cl)nc2)c([N+](=O)[O-])c1 [Example 8]
[out] 5.0

[in] State its Caspase activity Ratio for this compound: COc1ccc(NC(=O)c2ccc(Cl)nc2Cl)c([N+](=O)[O-])c1 [Example 15]
[out] Inactive

[in] State its Caspase activity Ratio for this compound: Cc1ccc(NC(=O)c2ccc(Cl)nc2)c([N+](=O)[O-])c1 [Example 9]
[out] 5.4

[in] State its Caspase activity Ratio for this compound: O=C(Nc1ccc(F)cc1[N+](=O)[O-])c1ccc(Cl)nc1 [Example 3]
[out] Inactive

[in] State its Caspase activity Ratio for this compound: N#Cc1ccc(NC(=O)c2ccc(Cl)nc2)c([N+](=O)[O-])c1 [Example 21]
[out] Inactive

[in] State its Caspase activity Ratio for this compound: COc1ccc(NC(=O)c2ccc(Cl)[n+]([O-])c2)c([N+](=O)[O-])c1 [Example 28]
[out] 2.4

[in] State its Caspase activity Ratio for this compound: COc1ccc(NC(=O)c2ccc(Cl)nc2)c(OC)c1 [Example 5]
[out] Inactive

Next:
[in] State its Caspase activity Ratio for this compound: O=C(Nc1ccc(OCc2ccccc2)cc1[N+](=O)[O-])c1ccc(Cl)nc1 [Example 25]
[out] 5.8
